Below: a set of entries, each annotated with reported 5-HT1A % Act @ Max Dose.
# measured.target: 5-HT1A receptor (Homo sapiens (Human))
# measurement.notes: FLIPR Ca^2+ flux agonist assay at 5-HT1A
# Format: cell-based
# measurement.setup: CHO cells
# Protocol: Functional Assays at 5-HT2A, 5-HT2B, and 5-HT1A. Agonist activity at 5-HT2A, 5-HT2B, and 5-HT1A receptors was determined using a FLIPR Ca^2+ flux assay at WuXi AppTec (Hong Kong) Limited according to their standard protocols. […] 10p L of references and compounds were then transferred from the compound plate into the cell plate and the fluorescent signal was read.
Record the result as a number with its unit.

These recorded examples may help you get a feel for the data.
molecule: CCC(CC)NC(=O)[C@@H]1C=C2c3cccc4[nH]cc(c34)C[C@H]2N(C)C1
5-HT1A % Act @ Max Dose: 102.46%
//
molecule: CCCN1C[C@@H](C(=O)N[C@H](C)CC)C=C2c3cccc4[nH]cc(c34)C[C@H]21
5-HT1A % Act @ Max Dose: 108.14%
//
molecule: CCCN1C[C@H](C(=O)N(CC)CC)C=C2c3cccc4[nH]cc(c34)C[C@H]21
5-HT1A % Act @ Max Dose: 95.6%
//
molecule: CC[C@@H](C)NC(=O)[C@H]1C=C2c3cccc4[nH]cc(c34)C[C@H]2N(C)C1
5-HT1A % Act @ Max Dose: 103.65%
//
molecule: CCN(CC)C(=O)[C@@H]1C=C2c3cccc4[nH]cc(c34)C[C@H]2N(CCc2cccc(OC)c2)C1
5-HT1A % Act @ Max Dose: 3.85%
//
molecule: CC[C@@H](C)NC(=O)[C@H]1C=C2c3cccc4[nH]cc(c34)C[C@H]2N(CC)C1
5-HT1A % Act @ Max Dose: 111.65%
//
molecule: CCN(CC)C(=O)[C@H]1C=C2c3cccc4[nH]cc(c34)C[C@H]2N(CCCF)C1
5-HT1A % Act @ Max Dose: 96.77%

Alright, here's another molecule for you.
Query CCC(CC)NC(=O)[C@H]1C=C2c3cccc4[nH]cc(c34)C[C@H]2N(C)C1 [Int14a] yields 5-HT1A % Act @ Max Dose of 70.27%

###

# measured.target: human 5-HT2C receptor (Homo sapiens (Human))
# Sequence (P28335 33-458 limits assumed): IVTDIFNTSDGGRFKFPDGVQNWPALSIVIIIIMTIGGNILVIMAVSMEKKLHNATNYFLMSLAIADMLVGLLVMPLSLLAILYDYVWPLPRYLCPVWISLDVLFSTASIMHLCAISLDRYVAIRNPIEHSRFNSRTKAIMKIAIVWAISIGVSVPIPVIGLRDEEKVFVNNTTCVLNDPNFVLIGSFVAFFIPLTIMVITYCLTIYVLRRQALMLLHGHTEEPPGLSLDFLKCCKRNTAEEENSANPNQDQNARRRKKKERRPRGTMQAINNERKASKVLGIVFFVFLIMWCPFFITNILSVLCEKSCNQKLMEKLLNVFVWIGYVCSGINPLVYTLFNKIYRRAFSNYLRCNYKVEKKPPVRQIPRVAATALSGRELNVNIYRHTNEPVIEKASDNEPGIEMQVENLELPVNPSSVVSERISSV
# Type: cell-based
# measurement.setup: Ca^2+ flux
measured.attribute: 5-HT2C % Act @ Max Dose (%)
Entry rule: numbers only, all in %.

These recorded examples may help you get a feel for the data.
smi: CCC[C@@H](C)NC(=O)[C@@H]1C=C2c3cccc4[nH]cc(c34)C[C@H]2N(CCC)C1
measured.attribute: 5-HT2C % Act @ Max Dose
value: 114.78
--
smi: CCN(CC)C(=O)[C@H]1C=C2c3cccc4[nH]cc(c34)C[C@H]2N(CCCF)C1
measured.attribute: 5-HT2C % Act @ Max Dose
value: 118.85
--
smi: CCCN1C[C@H](C(=O)N(CC)CC)C=C2c3cccc4[nH]cc(c34)C[C@H]21
measured.attribute: 5-HT2C % Act @ Max Dose
value: 106.79
--
smi: CCCN1C[C@@H](C(=O)N[C@H](C)CC)C=C2c3cccc4[nH]cc(c34)C[C@H]21
measured.attribute: 5-HT2C % Act @ Max Dose
value: 108.705
--
smi: CCN(CC)C(=O)[C@@H]1C=C2c3cccc4[nH]cc(c34)C[C@H]2N(CCCF)C1
measured.attribute: 5-HT2C % Act @ Max Dose
value: 105.48

Query "C=CCN1C[C@@H](C(=O)N[C@H](C)CC)C=C2c3cccc4[nH]cc(c34)C[C@H]21" yields 5-HT2C % Act @ Max Dose of 13.314

Query "CCN(CC)C(=O)[C@@H]1C=C2c3cccc4[nH]cc(c34)C[C@H]2N(Cc2ccccc2OC)C1" yields 5-HT2C % Act @ Max Dose of 13.417

Query "CC[C@@H](C)NC(=O)[C@@H]1C=C2c3cccc4[nH]cc(c34)C[C@H]2N(C)C1" yields 5-HT2C % Act @ Max Dose of 98.245
